# system under test: T1, rat PTH-1R (rat PTHR endogenously expressed on UMR-106 rat osteosarcoma cells) (rat, UniProt P25961 27-591)
# T1 sequence (looked up): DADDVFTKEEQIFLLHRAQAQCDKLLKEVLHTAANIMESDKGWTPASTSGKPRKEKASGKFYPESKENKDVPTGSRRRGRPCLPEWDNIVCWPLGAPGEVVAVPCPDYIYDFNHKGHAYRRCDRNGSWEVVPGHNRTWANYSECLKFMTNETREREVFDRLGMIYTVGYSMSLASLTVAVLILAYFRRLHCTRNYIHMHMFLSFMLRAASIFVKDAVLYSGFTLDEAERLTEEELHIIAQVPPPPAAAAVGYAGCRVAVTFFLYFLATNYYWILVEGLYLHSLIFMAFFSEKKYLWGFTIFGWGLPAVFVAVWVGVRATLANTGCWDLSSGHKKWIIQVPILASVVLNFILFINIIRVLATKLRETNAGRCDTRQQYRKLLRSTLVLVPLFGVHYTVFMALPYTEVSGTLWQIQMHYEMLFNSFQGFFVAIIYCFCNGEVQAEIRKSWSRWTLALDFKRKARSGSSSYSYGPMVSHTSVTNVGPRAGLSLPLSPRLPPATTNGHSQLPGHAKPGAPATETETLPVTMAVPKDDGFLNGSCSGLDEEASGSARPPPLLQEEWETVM
# assay details: cell-based or functional assay
*1 amine or outer side, *2 acyl side, *3 side chain or, on linkers, in order; H or OH if unused. Where no end group is shown, it is not given here. [ ]: non-standard residue; d: D form. αMe‑APPA = 2-amino-2-methyl-5-phenylpentanoic acid, C[C@@](CCCc1ccccc1)(N[*:1])C(=O)[*:2]; Bip(2'-Et-4'-OMe) = CCc1cc(OC)ccc1-c1ccc(C[C@H](N)C(=O)O)cc1; Arg(NO2) = N=C(NCCC[C@H](N)C(=O)O)N[N+](=O)[O-]; αMePhe(2,6-F2) = C[C@](N)(Cc1c(F)cccc1F)C(=O)O; αMePhe(2-F) = C[C@](N)(Cc1ccccc1F)C(=O)O; αMeW = C[C@](N)(Cc1c[nH]c2ccccc12)C(=O)O; αMeNle = CCCC[C@](C)(N[*:1])C(=O)[*:2]; αMe‑Bip(OMe) = α-methylated Bip(OMe); hhPhe = N[C@@H](CCCc1ccccc1)C(=O)O; hArg = N=C(N)NCCCC[C@H](N)C(=O)O; hCit = NC(=O)NCCCC[C@H](N)C(=O)O; Cit = NC(=O)NCCC[C@H](N)C(=O)O; αMeV = CC(C)[C@](C)(N)C(=O)O; αMeM = CSCC[C@](C)(N)C(=O)O; Nle = CCCC[C@H](N)C(=O)O; Ac5c = NC1(C(=O)O)CCCC1; Ac3c = NC1(C(=O)O)CC1; Aib = CC(C)(N)C(=O)O
readout: cAMP released with respect to control, 10 nM peptide, UMR-106 cells

Some solved cases for reference:
binder	result
[Aib]V[Aib]EIQL[Nle]HQ[hArg]A[hArg][αMe‑Bip(OMe)][hhPhe] [Seq. ID. 899]	91 percent of control
[Ac5c]V[Aib]EIQL[Nle]HQ[αMePhe(2,6-F2)]A[Aib][Bip(2'-Et-4'-OMe)][hhPhe] [Seq. ID. 799]	99 percent of control
V[Ac3c]V[Aib]EIQL[αMeM]HQ[hArg]A[hArg][αMeW][αMe‑APPA] [Seq. ID. 950]	67 percent of control

May I ask what cAMP released with respect to control, 10 nM peptide, UMR-106 cells has been recorded for [Aib]V[Aib]EIQ[αMePhe(2-F)][Nle]HQ[hCit][Aib][Cit][αMePhe(2,6-F2)] [Seq. ID. 418] ?
52 percent of control

May I ask what cAMP released with respect to control, 10 nM peptide, UMR-106 cells has been recorded for V[Ac5c]V[Aib]EIQL[αMeNle]HQ[hArg]A[hArg][Bip(2'-Et-4'-OMe)][αMe‑APPA] [Seq. ID. 925] ?
41 percent of control

May I ask what cAMP released with respect to control, 10 nM peptide, UMR-106 cells has been recorded for [Aib]V[Aib]EIQL[Nle]HQ[hArg]AK[Bip(2'-Et-4'-OMe)] [Seq. ID. 647] ?
101 percent of control

May I ask what cAMP released with respect to control, 10 nM peptide, UMR-106 cells has been recorded for [Aib]V[Aib]EIQ[αMePhe(2,6-F2)][Nle]HQ[Cit]A[Arg(NO2)][αMePhe(2-F)] [Seq. ID. 397] ?
102 percent of control

May I ask what cAMP released with respect to control, 10 nM peptide, UMR-106 cells has been recorded for [αMeV][Ac5c]V[Aib]EIQL[αMeM]HQ[hArg]A[hArg][αMeW][αMe‑APPA] [Seq. ID. 954] ?
88 percent of control
